// provenance: ChEMBL document CHEMBL4651402

Protocol Details: in vitro
Cond: chlorocebus sabaeus, Vero E6 (Vero C1008) cells, CC50
Metric Name: CC50 at 48 h (µM)
Please give a number only; it is taken to be in µM.

Molecule	Metric Name	Units	Number
CNC(=O)[C@@H](c1ccccc1)N1CCc2cc(OC)c(OC)cc2[C@@H]1CCc1ccc(C(F)(F)F)cc1 [ALMOREXANT]	CC50 at 48 h	µM	21.4
CC(Cc1ccccc1)NCCC(c1ccccc1)c1ccccc1 (configuration not stated) [PRENYLAMINE]	CC50 at 48 h	µM	10.7
C[C@H](Oc1cc(-c2cnn(C3CCNCC3)c2)cnc1N)c1c(Cl)ccc(F)c1Cl	CC50 at 48 h	µM	4.42

Req: # CC50 at 48 h lookup, item CNCc1ccc(-c2cc(-c3nc(-c4ccc(S(=O)(=O)C(C)C)cc4)cnc3N)on2)cc1 [BERZOSERTIB]
Resp: 10.2

Req: And CO[C@H]1CC[C@H](n2c([C@@H]3CCCC(=O)N3c3ccc(F)c(F)c3)nc3cc(-c4c(C)noc4C)ccc32)CC1 [INOBRODIB] ?
Resp: 3.16

Req: And Clc1ccc(C(c2ccccc2)N2CCN(C/C=C/c3ccccc3)CC2)cc1 (configuration not stated) [CLOCINIZINE] ?
Resp: 21.9

Req: And COc1ccc2c(c1)N(CC(C)CN(C)C)c1ccccc1S2 (configuration not stated) ?
Resp: 22.9

Req: And `CN(C)CC/C=C1\c2ccccc2OCc2c1oc1ccccc21` ?
Resp: 12.2

Req: And CN(C)CCCn1cc(-c2ccccc2)c(-c2ccccc2)n1 [FEZOLAMINE] ?
Resp: 39.8

Req: And CCCC(C(=O)OCCN(CC)CC)(c1ccccc1)c1ccccc1 [PROADIFEN] ?
Resp: 24

Req: And CN1CCC(OC(=O)C(Oc2ccc(Cl)cc2)Oc2ccc(Cl)cc2)CC1 [LIFIBRATE] ?
Resp: 38

Req: And NC(=O)C1(N2CCCCC2)CCN(CCCN2c3ccccc3CCc3ccccc32)CC1 [CARPIPRAMINE] ?
Resp: 8.61

Req: And Cc1ccc(C(=O)N(CCCN)[C@@H](c2oc3cc(Cl)ccc3c(=O)c2Cc2ccccc2)C(C)C)cc1 [SB-743921] ?
Resp: 2.63

====

Recorded CC50 at 48 h for the following molecules
Protocol Details: in vitro
Cond: chlorocebus sabaeus, vero c1008, pCC50
Please give a number only; it is taken to be in µM.

Reference set, count: 3
Molecule	Number
CNCCC=C1c2ccccc2CCc2ccccc21	24
CNCCCCOc1ccccc1Cc1ccccc1	26.9
CNCC[C@@H](Oc1cccc2ccccc12)c1cccs1 [(R)-DULOXETINE]	16.2

Req: # CC50 at 48 h lookup, item `CNCCCC1c2ccccc2C=Cc2ccccc21`
Resp: 26.3

====

Protocol Details: in vitro
Cond: chlorocebus sabaeus, Vero E6 (Vero C1008) cells, pCC50
Recorded CC50 at 48 h for the following molecules
Please give a number only; it is taken to be in µM.

Reference set, count: 5
Molecule	CC50 at 48 h [µM]
CC(C)(C)NC(=O)[C@@H]1C[C@@H]2CCCC[C@@H]2CN1C[C@@H](O)[C@H](Cc1ccccc1)NC(=O)[C@H](CC(N)=O)NC(=O)c1ccc2ccccc2n1	18.2
CN1CCC(COc2cnc(-c3cccc(Cn4nc(-c5cccc(C#N)c5)ccc4=O)c3)nc2)CC1 [TEPOTINIB]	5.75
CC1=C(/C=C/C(C)=C/C=C/C(C)=C/C(=O)Nc2ccc(O)cc2)C(C)(C)CCC1 [FENRETINIDE]	5.01
COc1ccc2c(c1)N(CC(C)CN(C)C)c1ccccc1S2 (stereo unspecified)	22.9
Nc1nc(Nc2ccc3c(c2)CC[C@@H](N2CCCC2)CC3)nn1-c1cc2c(nn1)-c1ccccc1CCC2 [BEMCENTINIB]	1.55

Req: # CC50 at 48 h lookup, item `C[C@H](Oc1cc(-c2cnn(C3CCNCC3)c2)cnc1N)c1c(Cl)ccc(F)c1Cl`
Resp: 4.37

Req: And O=C1CC2(CCCC2)CC(=O)N1CCCCN1CCN(c2nsc3ccccc23)CC1 [TIOSPIRONE] ?
Resp: 24.5

Req: And CO[C@H]1CC[C@H](n2c([C@@H]3CCCC(=O)N3c3ccc(F)c(F)c3)nc3cc(-c4c(C)noc4C)ccc32)CC1 [INOBRODIB] ?
Resp: 3.16

Req: And COc1ccccc1OCCNCC(O)COc1cccc2[nH]c3ccccc3c12 (stereo unspecified) [CARVEDILOL] ?
Resp: 17

====

Protocol Details: in vitro
Cond: chlorocebus sabaeus, Vero E6 (Vero C1008) cells, pCC50
Metric Name: CC50 at 48 h (µM)
Please give a number only; it is taken to be in µM.

Req: # CC50 at 48 h lookup, item CN(C)CC/C=C1\c2ccccc2CSc2ccccc21 [DOTHIEPIN]
Resp: 20

====

Recorded IC50 for the following compounds
Tested on: SARS-CoV-2
Protocol Details: microbe, parasite or virus in culture
Type: functional, organism-based, Chlorocebus sabaeus, Vero C1008
Cond: Severe acute respiratory syndrome coronavirus 2, Vero C1008, 48 h; read-out: pIC50 (converted)

Reference set, count: 2
Compound	Result
CCN(CCO)CCCC(C)Nc1ccnc2cc(Cl)ccc12 (stereo not given) [HYDROXYCHLOROQUINE]	~17 µM
CN1CCC[C@@H](CN2c3ccccc3Sc3ccccc32)C1	> 100 µM

Req: Please state recorded IC50 (tested on SARS-CoV-2) of CCN(CC)CCNC(=O)c1ccc(NS(C)(=O)=O)cc1 [SEMATILIDE]
Resp: > 100 µM

Req: And `CCN(CC)Cc1ccc2cc(COC(=O)Nc3ccc(C(=O)NO)cc3)ccc2c1` ?
Resp: > 100 µM

Req: And `Cc1cc2nc3c(=O)[nH]c(=O)nc-3n(C[C@H](O)[C@H](O)[C@H](O)CO)c2cc1C` ?
Resp: > 50.1 µM

====

Test system: SARS-CoV-2
Protocol Details: microbe, parasite or virus in culture
Cond: Severe acute respiratory syndrome coronavirus 2, Vero C1008, 48 h, read-out: pIC50 (converted)
Metric Name: IC50

Reference set, count: 2
Compound	Result
CC(c1ccc(Cl)c(Cl)c1)N1N=C(N)CC1=O (stereo not given)	> 20 µM
Cc1ccc2c(Cl)cc(Cl)c(O)c2n1	> 20 µM

Req: # IC50 lookup, item `CNC(=O)Oc1cccc2ccccc12`
Resp: > 20 µM

Req: And CCCCOc1cc(CC2CNC(=O)N2)ccc1OC (stereo not given) ?
Resp: > 20 µM

Req: And `C[C@]12CCC(=O)C=C1C=C[C@@H]1[C@@H]2CC[C@@]2(C)[C@H]1CC[C@@]21CCC(=O)O1` ?
Resp: > 20 µM

====

Recorded CC50 at 48 h for the following molecules
Protocol Details: in vitro
Cond: chlorocebus sabaeus, Vero E6 (Vero C1008) cells, CC50
Please give a number only; it is taken to be in µM.

Req: # CC50 at 48 h lookup, item c1ccc2c(c1)Sc1ccccc1N2CC1CN2CCC1CC2 (stereo not given)
Resp: 7.76

Req: And `c1ccc(C(c2ccccc2)N2CCN(CCCC3(c4ccccc4)OCCO3)CC2)cc1` ?
Resp: 17.4

Req: And NC(=O)C1CN(CCCCC(c2ccc(F)cc2)c2ccc(F)cc2)CCN1CC(=O)Nc1c(Cl)cc(N)cc1Cl (stereo not given) ?
Resp: 9.66

====

System: SARS-CoV-2
Protocol Details: microbe, parasite or virus in culture
Cond: Severe acute respiratory syndrome coronavirus 2, Vero C1008, 48 h, read-out: pIC50 (converted)
Metric Name: IC50

Reference set, count: 5
Compound	IC50
C=C1c2cccc(O)c2C(=O)C2=C(O)[C@]3(O)C(=O)C(C(N)=O)=C(O)[C@@H](N(C)C)[C@@H]3[C@@H](O)[C@H]12 [METHACYCLINE]	> 20 µM
COC(=O)N/N=C/c1c[n+]([O-])c2ccccc2[n+]1[O-] [CARBADOX]	> 20 µM
Cc1c(N)cccc1Cn1ccc(OCCc2cccs2)cc1=O [CG-400549]	> 20 µM
O=C(O)CNC(=O)c1nc(Cl)c2ccccc2c1O	> 20 µM
CCN(CC)CCOc1ccc(C(=C(Cl)c2ccccc2)c2ccccc2)cc1 [CLOMIPHENE]	> 20 µM

Req: # IC50 lookup, item `CCCc1ccc(C(=O)O)nc1`
Resp: > 20 µM

Req: And CN1CCN(c2nc(C3=C(c4c[nH]c5ccccc45)C(=O)NC3=O)c3ccccc3n2)CC1 [SOTRASTAURIN] ?
Resp: > 20 µM

====

Test system: SARS-CoV-2
Protocol Details: microbe, parasite or virus in culture
Cond: Severe acute respiratory syndrome coronavirus 2, Vero C1008, 48 h
pIC50: −log10 of the molar value.
Recorded pIC50 for the following molecules

Reference set, count: 5
Molecule	Metric Name	Result
c1ccc2c(c1)OCC(C1=NCCN1)O2 (centres undefined)	pIC50	< 4.70
CCN1CCN(C(=O)NC(C(=O)NC2C(=O)N3C2SC(C)(C)C3C(=O)O)c2ccccc2)C(=O)C1=O (centres undefined)	pIC50	< 4.70
CN1CCc2cc3c(cc2C1O)OCO3 (centres undefined) [HYDRASTININE]	pIC50	< 4.70
c1cc2c(c(N3CCNCC3)c1)OCCO2	pIC50	< 4.70
CC(C)(C)C(O)/C=C/c1ccc2c(c1)OCO2 (centres undefined)	pIC50	< 4.70

Req: # pIC50 lookup, item `CC(C)=CCC/C(C)=C/CC1=C(C)C(=O)c2ccccc2C1=O`
Resp: < 4.70

Req: And CC[N+](C)(CC)CCOC(=O)C(O)(c1ccccc1)C1CCCCC1 (centres undefined) ?
Resp: < 4.70

Req: And `O=C(CCCN1CCC(C(=O)c2ccc(Cl)cc2)CC1)c1ccc(F)cc1` ?
Resp: < 4.70

Req: And `CCOc1ccccc1O[C@H](c1ccccc1)[C@H]1CNCCO1` ?
Resp: < 4.70

Req: And `Cc1cn(Cc2ccc(Cl)cc2Cl)c2c(/C=C/C(=O)NS(=O)(=O)c3cc(Cl)c(Cl)s3)cc(F)cc12` ?
Resp: < 4.70

Req: And Cc1cc(CC(C)CC(C)(C)C)n(O)c(=O)c1 (centres undefined) ?
Resp: < 4.70
